test protocol: soluble on expression in E. coli; label from the status in PepcDB or PDB records
endpoint: soluble on expression in E. coli

• MKYQLTALEARVIGCLLEKQVTTPEQYPLSVNGVVTACNQKTNREPVMNLSESEVQEQLDNLVKRHYLRTVSGFGNRVTKYEQRFCNSEFGDLKLSAAEVALITTLLLRGAQTPGELRSRAARMYEFSDMAEVESTLEQLANREDGPFVVRLAREPGKRENRYMHLFSGEVEDQPAVTDMSNAVDGDLQARVEALEIEVAELKQRLDSLLAHLGD = soluble
• MSLTKSSKYDTAFLKENMMGPNAIKIIEELLESLKLEEGMRVLDLGCGKGLTSIFLAKEYGVTVFATDLWISATENYERIKSMGLEDKIIPIHAEAHDLPFAQEYFDVAISVDAYHYFGIEEDYLTKHLAPLVKKGGKIAVAVPGLKKEFENGVPEKLQPYWFEDMTLTLHSLDWWYNLWKKADSVSIEECKELKCLEETWQDWLSCDNDYARRDIGMMEAEGGNYFNLVSIIATRLEGHHHHHH = soluble

---

test protocol: soluble on expression in E. coli; label from the status in PepcDB or PDB records
endpoint: soluble on expression in E. coli

* MGFFSGQFSNVVEWEEFREDMIFWKWHNREIKRGSKLIIRPGQDAIFLFNGRIEGIFKDEGDYDIESQIIPFLSTLQGFKFGFNSGMRAEVLFVNTKEFTAKWGTKSAINIPTPQLPGGIPIRANGTFTFKVNDYVKLIDRIAGVKDSFLVEDVRLRIMALLDQLMMKWIVQEGRDMFNLQSNSFAIADGLKTDLDMQIYDMGITVSQLTIMSFTYPEEIQQMIAKAASHTMIGDMGRYQQVSVLDGIAGGKLEHHHHHH | not soluble
* MIHTLAKCEWIKKSLPLCLIGDSGTGKSHLLIALGTEAAMAGYRVKYVLATKLVNELVEAADEKQLTKTIARYGRVDLLCIDELGYMELDRRGAELLFQVLTEREEKNSVAIASNESFSGWTKTFTDPRLCAAIVDRLTFGGNIIETGTDSYRLATTRARAEQQAVVLEHHHHHH | not soluble

---

test protocol: soluble on expression in E. coli; label from the status in PepcDB or PDB records
endpoint: soluble on expression in E. coli

• MAHHHHHHMHNVYNIFRQGQKRTYMTTALDRKIREVPYLSRYVILEKLKKKPRYMSECVGTPRRAYDYNTFDKIRYKPTFNPYVHLNKDKKYRLDNWKSRDHENFDPLKCYVRGSRKSYDIPYAILPTKDELGMFHPPILSGRYKADIEKQYYMHDLPWVWHKNFYTGTSHFCDNMVIGKKKWYRKEQQNEKMKESMKKINNLVLEYREECKNKKRYNFLEKVVNTLGDEIAHKYIRKIKNIYL = not soluble
• MGSDKIHHHHHHAQEERNQGIIWSYLHGWEYGIKAGFSIGGTSPLPLPEEIRKIDSYAPGGLAISIEGNATKWFDTKWGMTVGVRLENKNMTTEATVKNYGMKIINTNGGELQGLWTGGVKTKVKNSYLTIPVVANYKVSKRWKVSAGPYVSYLIERNFSGHVYEGHLRTPDQTGSRVDFTGESIATYDFSDNLRKFQWGLQLGGEWRAFKHLNVYADLTWGLNDIFKKDFDTISFAMYPIYLNIGFGYAF = not soluble
• MILNNESNKKKKFEQFFIMTYPKVKAFAWKLLKSEEDAEDIAQDIFAKLWTNPEIWENQETWNSYIYTMVRNHIYNFLKHKSIRQTYQEQCTKEEPAISETDIHDQLYAKESELLIKLTIANMPEQRRKIFRMSRTQEKSNQEIADELNISIRTVERHIYLALIDLKKVLLTLFFFYLG = not soluble
